Recorded values, source the supplement of paper PMC11061612.

Below: a set of entries, each annotated with reported Bliss excess.
Tested on: IMR-5 (Neuroblastoma)
assayOverview: Bliss excess, mean over the matrix (fraction); higher = more synergy;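 also: after 72 h of two-drug dosing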
// no unit, no text: just the number

Answered cases to consult:
[[record]]
molecule = "NC1(C(=O)N[C@@H](CCO)c2ccc(Cl)cc2)CCN(c2ncnc3[nH]ccc23)CC1 [Capivasertib] + C[C@@H]1COCCN1C2=NC(=NC(=C2)C3(CC3)[S@](=N)(=O)C)C4=C5C=CNC5=NC=C4 [AZD6738] (first compound max 10 µM, 7x7, partner max 10 µM)"
measuredvalue = 0.019

[[record]]
molecule = "COc1cc2c(cc1OCCCCCOc1cc3c(cc1OC)C(=O)N1C=C(C)C[C@H]1C=N3)N=C[C@@H]1CC(C)=CN1C2=O [SG3199] + O=C(c1cc(Cc2n[nH]c(=O)c3ccccc23)ccc1F)N1CCN(C(=O)C2CC2)CC1 [Olaparib] (first compound max 0.001 µM, 7x7, partner max 10 µM)"
measuredvalue = 0.0167

[[record]]
molecule = "C[C@@H](c1ccc2nccn2c1)n1nnc2ncc(-c3cnn(C)c3)nc21 [Savolitinib] + CN(CC[C@H](CSC1=CC=CC=C1)NC2=C(C=C(C=C2)S(=O)(=O)NC(=O)C3=CC=C(C=C3)N4CCC(CC4)[C@H](C5=CC=CC=C5C6=CC=C(C=C6)Cl)O)S(=O)(=O)C(F)(F)F)CCO [AZD4320] (first compound max 1 µM, 7x7, partner max 1 µM)"
measuredvalue = -0.0399


Give its Bliss excess value. Item: CCN(CCO)CCCOc1ccc2c(Nc3cc(CC(=O)Nc4cccc(F)c4)[nH]n3)ncnc2c1 [AZD2811] + C[C@@H]1COCCN1C2=NC(=NC(=C2)C3(CC3)[S@](=N)(=O)C)C4=C5C=CNC5=NC=C4 [AZD6738] (first compound max 1 µM, 7x7, partner max 10 µM)
-0.0339

Given Cc1cc2ncnn2cc1Nc1ncc2c(n1)n(C1CCOCC1)c(=O)n2C [AZD7648] + C[C@@H]1COCCN1C2=NC(=NC(=C2)C3(CC3)[S@](=N)(=O)C)C4=C5C=CNC5=NC=C4 [AZD6738] (first compound max 10 µM, 7x7, partner max 10 µM) , state its recorded Bliss excess.
0.0088

Which Bliss excess value belongs to CN(CCO)CC[C@H](CSc1ccccc1)Nc1ccc(S(=O)(=O)NC(=O)c2ccc(N3CCC([C@@H](O)c4ccccc4-c4ccc(Cl)cc4)CC3)cc2)cc1S(=O)(=O)C(F)(F)F [AZD4320] + C[C@@H]1COCCN1C2=NC(=NC(=C2)C3(CC3)[S@](=N)(=O)C)C4=C5C=CNC5=NC=C4 [AZD6738] (first compound max 1 µM, 7x7, partner max 10 µM) ?
0.102

What does the record list as Bliss excess for Cn1cnc2c(F)c(Nc3ccc(Br)cc3Cl)c(C(=O)NOCCO)cc21 [Selumetinib] + C[C@@H]1COCCN1C2=NC(=NC(=C2)C3(CC3)[S@](=N)(=O)C)C4=C5C=CNC5=NC=C4 [AZD6738] (first compound max 10 µM, 7x7, partner max 10 µM) ?
0.0151

###

Tested on: PF-382 (T-Lymphoblastic Leukemia)
assayOverview: Bliss excess, mean over the matrix (fraction); higher = more synergy
assayMetric: Bliss excess
Give the figure by itself; no unit, no explanation.

Answered examples (2):
[[record]]
compound = "NC1(C(=O)N[C@@H](CCO)c2ccc(Cl)cc2)CCN(c2ncnc3[nH]ccc23)CC1 [Capivasertib] + COc1nnc2ccc(N3CCC(c4ccc(OCCN5CCN(C)C(=O)[C@H]5C)cc4)CC3)nn12 [AZD5153] (first compound max 10 µM, 7x7, partner max 1 µM)"
measuredvalue = 0.0451

[[record]]
compound = "CC1(C)CCC(CN2CCN(c3ccc(C(=O)NS(=O)(=O)c4ccc(NCC5CCOCC5)c([N+](=O)[O-])c4)c(Oc4cnc5[nH]ccc5c4)c3)CC2)=C(c2ccc(Cl)cc2)C1 [Venetoclax] + Cc1cc2ncnn2cc1Nc1ncc2c(n1)n(C1CCOCC1)c(=O)n2C [AZD7648] (first compound max 1 µM, 7x7, partner max 10 µM)"
measuredvalue = -0.0134


Next item in the queue.
Recorded Bliss excess for Cc1c2c(nn1C)CSCc1cc(n(C)n1)CSc1cc(c3ccccc3c1)OCCCc1c(C(=O)O)n(C)c3c-2c(Cl)ccc13 [AZD5991] + Cc1cc2ncnn2cc1Nc1ncc2c(n1)n(C1CCOCC1)c(=O)n2C [AZD7648] (first compound max 1 µM, 7x7, partner max 10 µM) , please?
0.038
